# Study system: MAPK14 (human) (UniProt Q16539)
# Sequence (Q16539 whole entry, looked up): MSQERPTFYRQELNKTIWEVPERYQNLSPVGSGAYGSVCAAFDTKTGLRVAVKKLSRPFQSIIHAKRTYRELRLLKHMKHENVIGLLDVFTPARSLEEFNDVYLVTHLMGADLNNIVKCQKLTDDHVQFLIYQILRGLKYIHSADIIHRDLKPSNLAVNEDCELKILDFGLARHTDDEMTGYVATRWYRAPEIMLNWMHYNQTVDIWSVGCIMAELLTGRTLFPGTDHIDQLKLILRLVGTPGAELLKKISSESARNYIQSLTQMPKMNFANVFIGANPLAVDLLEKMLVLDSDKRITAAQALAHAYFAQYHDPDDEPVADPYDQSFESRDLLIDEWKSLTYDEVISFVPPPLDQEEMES
# Assay summary: Inhibition of TNF-alpha Release in LPS Stimulated Whole Blood Cells
pIC50: −log10 of the molar value.
Measured quantity: pIC50

I: CC(C)[C@H](N)C(=O)OCCNC(=O)OCc1ccc(N(C(N)=O)c2c(F)cccc2F)nc1-c1ccc(F)cc1F
II: CN(C)C=NC(=O)OCc1ccc(N(C(N)=O)c2c(F)cccc2F)nc1-c1ccc(F)cc1F
III: CN(C)C=NC(=O)OCc1ccc(N(C(=O)N=CN(C)C)c2c(F)cccc2F)nc1-c1ccc(F)cc1F
INPUT: Thanks in advance: please rank these 3 entries by pIC50, highest to lowest. Reply with the labels, ordered as the question asks.
OUTPUT: I, III, II

---

# Study system: MAPK14 (human) (UniProt Q16539)
# Assay summary: Inhibition of IL-1beta Production in LPS Stimulated PBMC
Measured quantity: IC50 (µM)

P: CN(C)C=NC(=O)OCc1ccc(N(C(N)=O)c2c(F)cccc2F)nc1-c1ccc(F)cc1F
Q: CC(C)[C@H](N)C(=O)OCCNC(=O)OCc1ccc(N(C(N)=O)c2c(F)cccc2F)nc1-c1ccc(F)cc1F
INPUT: Hey, between P and Q which has a smaller measured IC50? Give the label of your selection.
OUTPUT: Q

---

# Study system: UniProt Q16539
# Assay summary: Inhibition of IL-1 beta Release in LPS Stimulated Whole Blood Cells
pIC50: −log10 of the molar value.
Measured quantity: pIC50

I: CN(C)C=NC(=O)OCc1ccc(N(C(N)=O)c2c(F)cccc2F)nc1-c1ccc(F)cc1F
II: CC(C)[C@H](N)C(=O)OCCNC(=O)OCc1ccc(N(C(N)=O)c2c(F)cccc2F)nc1-c1ccc(F)cc1F
III: CN(C)C=NC(=O)OCc1ccc(N(C(=O)N=CN(C)C)c2c(F)cccc2F)nc1-c1ccc(F)cc1F
INPUT: Write the entries in order, lowest recorded pIC50 first. Reply with the labels, ordered as the question asks.
OUTPUT: I, III, II
(I: 4.91, III: 5.66, II: 6.85)
